Source: patent US20240270828A1

Biological target: SARS-CoV-2 S1+S2 (40589-V08B1, Sino Biological) (SARS-CoV-2, UniProt P0DTC2 16-1213)
Experiment: ELISA, hmAb at 10 and 1 ug/ml in duplicate; AUC
measured-endpoint: Binding AUC
Answers are plain numbers.

For each of the items listed, what is its Binding AUC?
1. 1246C2 (antibody, V domains shown) VH: QVQLVQSGGGLVKPGGSLRLSCAASGFTFKTHNMIWVRQAPGKVLEWVSSISGSSSYRYYGDSMKGRLTISRDNAKNSLYLEMNSLRAEDTAVYYCARDKGVGPTMVWYFDLWGRGTLVTVSS VL: EIVLTQSPATLSLSPGDRATLSCRASQSLSISLAWYQQKPGQAPRLLIYDASIRATGVPPRFSGSGSGTDFTLTISSLEPEDFAVYYCQQWSGWPPRLTFGGGTKVEIK
2. 1242G6 (antibody, V domains shown, Recombinant human IgG1) VH: QVQLVQSGGGVVQPGTSVRLSCAASGFTFSDHGMHWVRQAPGKGLEWVAVISFEGRNKFFADSVKGRSTISRDNSKNTVSMQVDNVRPEDTAVYYCAREHFDGSGSDYIGTRFFDYWGRGALVTVSS VL: DIQLTQSPSFLSASVGDRVTITCRASQGISHYLTWYQQKPGKAPKLLIYRTSTLQSGVPSRFSGSGSGTVFTLTISSLQPEDLATYYCQHLDNFPTITFGQGTRLDLK
3. 1242D11 (antibody, V domains shown) VH: QVQLVQSGGGLVQPGGSLRLSCAVSGFTFSSYWMSWVRQAPGKGLEWVANIKQDGSEKYYVDSVKGRFTISRDNAKNSLFLQMNSLRAEDTAVYYCAREAVGYYYDSRGYHYSWYFDLWGRGTLVTVSS VL: EIVLTQSPGTLSLSPGERATLSCRASQSVSSSYLVWYQQKPGQAPRLLIFGASSRATGIPDRFSGSGSGTDFTLTISSLEPEDFAVYYCQHYGSSPPMYTFGQGTKLEIK
4. 1242C6 (antibody, V domains shown, Recombinant human IgG1) VH: EVQLVQSGAEVKKPGASVKVSCKASGFTFSDYYMHWVRQAPRQGLEWMGLINPSGSGTAYAQNFQGRVTLTRDTSTSTLYMEMGSLTSDDTAVYYCARMDSSGSYDHWGQGTLVTVSS VL: DIVMTQSPGTLSLSPGDRATLSCRASQTIRISYLAWYQQKPGQAPRLLVYGPSIRATGIPDRFSASGSGTDFTLTISRLEPEDFAVYYCQHYGSSPPRYTFGQGTKLEIK
5. 1250D2 (antibody, V domains shown, Recombinant human IgG1) VH: QVQLVQSGAEVKKPGASMKVSCKASGFTFSDYYMHWVRQAPRQGLEWMGLINPSGSGTAYAQNFQGRVTLTRDTSTSTLYMEMGSLTSDDTAVYYCARMDSSGSYDHWGQGTLVTVSS VL: EIVLTQSPGTLSLSPGDRATLSCRASQTIRISYLAWYQQKPGQAPRLLVYGPSIRATGIPDRFSASGSGTDFTLTISRLEPEDFAVYYCQHYGSSPPRYTFGQGTKLEIK
6. 1246H7 (antibody, V domains shown) VH: QVQLQQSGPGLMKPSETLSLTCTVSGGSISSSSYYWGWIRQPPGKGLEWIGSIYYSGATYYNPSLKSRVTISVDTSKNQLSLKLSSVTAADTAVYYCVNRYYDYVWGSWGVDCWGQGTLVTVSS VL: QAGLTQPRSVSGSPGQSVTISCTGTSSDVGGYNYVSWYQQHPGKAPKLMIYDVNKRPSGVPDRFSGSKSGNTASLTISGLQAEDEADYFCCSYAGSYTYWVFGGGTKLTVL

1. 18
2. 24.3
3. 21.4
4. 25.6
5. 25.3
6. 5
